Assay type: physicochemical
Starred links: 1 amine or outer side, 2 acyl side, 3 side chain; linkers in the order of their positions; H or OH if unused. Non-standard residues stand in square brackets, D forms with d. Residues, ends and D or L forms follow the SMILES beside them. X1 = CC(C)C[C@H](NC(=S)[C@H](Cc1ccc(O)cc1)N[*:1])C(=O)[*:2]; X11 = CC[C@H](C)[C@H](N[*:1])C(=S)N[C@@H](C)C(=O)[*:2]; X2 = CC(C)C[C@H](NC(=S)[C@@H](CC(C)C)N[*:1])C(=O)[*:2]
Below, each entry is listed alongside its reported % solubility.
Write the answer as a number in %, unit excluded.

Compound | Reported Property | Recorded Measurement
CC[C@H](C)[C@@H]1NC(=O)[C@@H]2CCCN2C(=O)[C@H]([C@@H](C)CC)NC(=O)[C@@H]2CCCN2C(=O)[C@H](Cc2ccccc2)NC(=O)[C@H](C)NC(=O)[C@H](C)NC1=O [compound 11, cyclo(-Ile^1-Ala-Ala-Phe-Pro-Ile-Pro^7-)] (cyclo(AAFPIPI)) | % solubility | 95
CC[C@H](C)[C@@H]1NC(=O)[C@@H]2CCCN2C(=O)[C@H](Cc2ccccc2)NC(=O)[C@H](C)NC(=O)[C@H](C)NC(=S)[C@H]([C@@H](C)CC)NC(=O)[C@@H]2CCCN2C1=O [11a] (cyclo(AFPIP[X11])) | % solubility | 74
CC(C)C[C@@H]1NC(=O)[C@@H](CC(C)C)NC(=O)[C@H](CC(C)C)NC(=S)[C@H](Cc2ccc(O)cc2)NC(=O)[C@H]2CCCN2C(=O)[C@H](CC(C)C)NC1=O [10e] (cyclo(LL[dP][X1][dL])) | % solubility | 14

Okay, next one:
Endpoint output: % solubility of CC(C)C[C@@H]1NC(=O)[C@@H]2CCCN2C(=O)[C@@H](C)NC(=O)[C@H](CC(C)C)NC(=S)[C@@H](CC(C)C)NC(=O)[C@H]2CCCN2C(=O)[C@H](CC(C)C)NC(=O)[C@@H](CC(C)C)NC1=O [12d] (cyclo(L[dL]L[dP][X2][dA]P)) . Value?
25

====

Below, each entry is listed alongside its reported remaining at 2 h.
Protocol Description: in vitro
Experimental Conditions: pig, simulated intestinal fluid
Starred links: 1 amine or outer side, 2 acyl side, 3 side chain; linkers in the order of their positions; H or OH if unused. Non-standard residues stand in square brackets, D forms with d. Residues, ends and D or L forms follow the SMILES beside them. X3 = CC(C)C[C@H](N[*:1])C(=S)N[C@H](CC(C)C)C(=O)[*:2]; X5 = CC(C)C[C@H](NC(=S)[C@H](CC(C)C)N[*:1])C(=O)[*:2]; NMeL = CN[C@@H](CC(C)C)C(=O)O
Write the answer as a number in %, unit excluded.

For orientation, consider the following solved cases.
Compound | Readout Units | remaining at 2 h
CC(C)C[C@@H]1NC(=O)[C@H](Cc2ccc(O)cc2)NC(=O)[C@H]2CCCN2C(=O)[C@H](CC(C)C)NC(=S)[C@H](CC(C)C)NC(=O)[C@@H](CC(C)C)NC1=O [10b] (cyclo(L[dL][X5][dP]Y)) | % | 39
CC(C)C[C@@H]1NC(=O)[C@H](Cc2ccc(O)cc2)NC(=O)[C@H]2CCCN2C(=O)[C@H](CC(C)C)NC(=O)[C@H](CC(C)C)N(C)C(=O)[C@@H](CC(C)C)NC1=O [10h] (cyclo(L[dL][NMeL]L[dP]Y)) | % | 27

Okay, next one:
Endpoint output: remaining at 2 h of CC(C)C[C@@H]1NC(=O)[C@@H](CC(C)C)NC(=S)[C@H](CC(C)C)NC(=O)[C@H](Cc2ccc(O)cc2)NC(=O)[C@H]2CCCN2C(=O)[C@H](CC(C)C)NC1=O [10f] (cyclo(LL[dP]Y[X3])) . Value?
48.1
